System: EKVX NSCLC
Test: NCI tumour cell line growth inhibition, 48 h
Where a SMILES comes first, the peptide text is derived from it. The star is where a group is joined. Trt = c1ccc(C(c2ccccc2)(c2ccccc2)*)cc1; Cbz = O=C(OCc1ccccc1)*

Compound | TGI
CC/C(=C\c1ccc(OC)cc1)c1ccc(OC)cc1 | > 100 µM
COC(=O)C(CSC(c1ccccc1)(c1ccccc1)c1ccccc1)NC(=O)C(CC(N)=O)NC(=O)OCc1ccccc1 (stereo not drawn) (Cbz-Asn-Cys(Trt)-OMe; configuration not given here) | 25.5 µM
CC(C)NC(=O)OCc1c(COC(=O)NC(C)C)c(-c2cc[n+](COC(=O)C3CCCCC3)cc2)n2c1CCC2 | > 100 µM
O=c1[nH]nc(-c2ccccc2)n1-n1cnnc1 | > 100 µM
CN1CCN(c2ccc3nc(-c4ccc(OCCCCN5CCN(CCCCN6C(=O)c7cccc8cccc(c78)C6=O)CC5)cc4)[nH]c3c2)CC1 | > 100 µM
O=c1[nH]c2ccc([N+](=O)[O-])cc2nc1/C=C(\O)c1ccccc1 | > 100 µM
C=C1C(=O)OC2C3OC(C)(CCC(O)C3COC(C)=O)CC(OC(=O)/C(=C/C)COC(C)=O)C12 (stereo not given) | 1.61 µM
COc1ccc(C)cc1C1CCC(=O)O1 (stereo not given) | > 100 µM
O=S(=O)(O)c1ccc2c(N=Nc3ccc(Sc4ccc(N=Nc5c(O)ccc6cc(S(=O)(=O)O)ccc56)cc4)cc3)c(O)ccc2c1 | > 100 µM
CCn1c2ccccc2c2cc(Nc3cc(C)[nH]c(=O)n3)ccc21 | > 100 µM

---

Test system: T-47D breast
Test: NCI tumour cell line growth inhibition, 48 h
The entries below come with measured TGI values attached.

Compound | TGI
CCNC(=S)N/N=C(\C)c1cccc(C)n1 | > 100 µM
NS(=O)(=O)c1ccc(NC(=O)c2cccc(NC3=C(Cl)C(=O)N(Cc4ccccc4)C3=O)c2)cc1 | > 100 µM
C=C1CC2[C@H](C)C(=O)CCC2(C)C2=C1C1CCC(C(C)CCC(=C)C(C)C(=O)O)C1(C)CC2=O (some centres undefined) | > 100 µM
COC(=O)/C(=N\Nc1nnc(C)n1N)C(C#N)c1ccccc1 (centres undefined) | > 100 µM

---

Test system: HOP-92 NSCLC
Experiment: NCI tumour cell line growth inhibition, 48 h
Entries annotated with measured log10 of TGI
Endpoint: log10 of TGI (log10 of the value in µM)

Compound | Test system | Number
CC1(C)CC(=O)C2=C(C1)OC1(CC2c2ccc(Cl)cc2)CC(c2ccc(Cl)cc2)C2=C(CC(C)(C)CC2=O)O1 (stereo not drawn) | HOP-92 NSCLC | 1.41
Cc1c(Cl)c(C)c(Cc2c(C)c(Cl)c(C)c(Cl)c2O)c(O)c1Cl | HOP-92 NSCLC | 0.68
CCCN1CCC=C(c2ccc(Nc3nc(Nc4ccccc4C(N)=O)c4cc[nH]c4n3)c(C)c2)C1 | HOP-92 NSCLC | 0.31
O=C(C=C=Nc1ccccc1)C(=O)N=C=Cc1ccccc1 | HOP-92 NSCLC | 1.30
CCCCCCCCCCCCCCCCOCC(O)CO (stereo not drawn) | HOP-92 NSCLC | 1.62

---

Test system: PC-3 prostate
Test: NCI tumour cell line growth inhibition, 48 h

Compound | TGI
Nc1ccn(C2OC(C(OC3OC(CO)C(O)C(N)C3O)C(O)C(O)C(O)C(O)CO)C(N)C(O)C2O)c(=O)n1 (centres undefined) | > 100 µM
COC1CC(OC2C(C)OC(OC3C(C)OC(OC4C(C)OC(O[C@H]5CC[C@@]6(C)C(=CC[C@]7(O)[C@@H]6C[C@@H](O)[C@@]6(C)[C@]7(O)CC[C@@]6(O)C(C)=O)C5)CC4OC)CC3OC)CC2OC)OC(C)C1O (some centres undefined) | > 12.5 µM
C/C(=N/O)c1ccc(Nc2cc(-n3ccnc3)c3ccccc3n2)cc1 | > 100 µM
C[C@H](CCC(=O)NCC(=O)O)[C@H]1CC[C@H]2[C@@H]3[C@H](O)C[C@@H]4C[C@H](O)CC[C@]4(C)[C@H]3CC[C@]12C | > 100 µM

Values from PubChem BioAssay (NCI)
